TEST NAME: inhibitors of E-selectin induction by TNFa, primary screen, imaging, HUVEC, immunofluorescence, MLSMR starter and 10KST1 sets (AID 487);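 further: 100% = median nuclei count of all wells on the same plate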
STUDY CONDITIONS: HUVEC TNFalpha-induced E-selectin immunofluorescence imaging, at 2 µM; measured here: cell number, toxicity
Here the recorded nuclei count is given for each entry.
ENDPOINT NAME: nuclei count (%)

>>> quantitative_readout("CC(CN1CCN(C)CC1)OC(=O)c1ccc(Cl)cc1Cl (stereo not drawn)")
93.6
>>> quantitative_readout("O=C(Nc1nccs1)NC(C(F)(F)F)C(F)(F)F")
95.3
>>> quantitative_readout("CCN(CC)S(=O)(=O)c1cccc2c(N(C)C)cccc12")
128
>>> quantitative_readout("CCCc1cc(-n2ccnc2C)n2c(nc3ccccc32)c1C#N")
153
>>> quantitative_readout("COc1ccc2c(c1)c(CC(=O)OCC(=O)O)c(C)n2C(=O)c1ccc(Cl)cc1")
111
>>> quantitative_readout("C[C@]12CC[C@@H]3c4ccc(OS(=O)(=O)O)cc4CC[C@H]3[C@@H]1CCC2=O")
121
>>> quantitative_readout("Cc1c(/C(O)=C2\\C(=O)C(=O)N(CCN(C)C)C2c2cccnc2)cnn1-c1ccccc1 (stereo not drawn)")
139
>>> quantitative_readout("Cc1nc(SCC(=O)c2ccccc2)c(C#N)c(-c2ccco2)c1C(=O)NCc1ccco1")
138
>>> quantitative_readout("CNCCCN1c2ccccc2CCc2ccccc21")
118
>>> quantitative_readout("COc1ccc(-c2nn3c(-c4ccccn4)nnc3s2)cc1OC")
169
>>> quantitative_readout("CCOC(=O)c1ccc2nc(NC(NC(C)=O)(C(=O)OC)C(F)(F)F)sc2c1 (stereo not drawn)")
130
>>> quantitative_readout("CCCCCNC(=O)c1c(N)n(/N=C/c2ccco2)c2nc3ccccc3nc12")
147
>>> quantitative_readout("COc1cc([C@@H]2[C@H]3CNCC=C3C(C#N)=C(N)C2(C#N)C#N)ccc1OC(C)C")
156

###

TEST NAME: inhibitors of E-selectin induction by TNFa, primary screen, imaging, HUVEC, immunofluorescence, MLSMR starter and 10KST1 sets (AID 487);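 further: 100% = median nuclei count of all wells on the same plate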
STUDY CONDITIONS: HUVEC TNFalpha-induced E-selectin immunofluorescence imaging, at 2 µM; measured here: cell number, toxicity
Here the recorded nuclei count is given for each entry.
ENDPOINT NAME: nuclei count (%)

>>> quantitative_readout("Cc1occc(=O)c1OC(=O)Nc1ccccc1")
154
>>> quantitative_readout("C=CCc1ccccc1OCC(O)CNC(C)C (stereo unspecified)")
131
>>> quantitative_readout("C[C@H]1C[C@@H]2[C@H]([C@@H](O)C[C@@]3(C)[C@H]2CC[C@]3(O)C(=O)CO)[C@@]2(C)C=CC(=O)C=C12")
120
>>> quantitative_readout("CCO/C([O-])=N/c1c[n+](N2CCOCC2)no1")
122
>>> quantitative_readout("CCCCCCc1cc2cc(-c3nnc(-c4ccccc4O)o3)c(=O)oc2cc1O")
122
>>> quantitative_readout("CSC1=C(C#N)C(c2ccc(C)s2)CC(=O)N1 (stereo unspecified)")
63.5
>>> quantitative_readout("CN(Cc1c(O)ccc2c1oc(=O)c1ccccc12)C1CCCCC1")
172
>>> quantitative_readout("Nc1nc(NC(=O)c2cccs2)nn1-c1ccccc1")
140
>>> quantitative_readout("C=CCOC(=O)C(C#N)c1nc2ccccc2nc1N1CCN(c2ccccc2OCC)CC1 (stereo unspecified)")
165
>>> quantitative_readout("CCc1ccc2c(c1)C(C)=CC(C)(C)N2")
176
>>> quantitative_readout("Cn1c(=O)n(CCc2ccccc2)c(=O)c2c1ncn2Cc1ccccc1")
115

###

TEST NAME: inhibitors of E-selectin induction by TNFa, primary screen, imaging, HUVEC, immunofluorescence, MLSMR starter and 10KST1 sets (AID 487);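 further: 100% = median nuclei count of all wells on the same plate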
STUDY CONDITIONS: HUVEC TNFalpha-induced E-selectin immunofluorescence imaging, at 2 µM; measured here: cell number, toxicity
Here the recorded nuclei count is given for each entry.
ENDPOINT NAME: nuclei count

>>> result("C(=N\\n1cnnc1)/c1cccnc1")
"115%"
>>> result("COC(=O)c1ccc(C2/C(=C(/O)c3ccc(OC)cc3)C(=O)C(=O)N2c2cc(C)on2)cc1 (stereo not given)")
"138%"
>>> result("O=C(O)CC(C(=O)N(c1ccccc1)c1ccccc1)N1CCOCC1 (stereo not given)")
"118%"
>>> result("CCCCOc1ccc(C)cc1CN(CCO)CCO")
"111%"
>>> result("Cc1ccc(C(=O)C2=C(O)C(=O)N(c3ncccn3)C2c2ccc(Cl)cc2)o1 (stereo not given)")
"94.4%"
>>> result("CC(C)C1=C2OC(N)=C(C#N)C(C#N)=C2C(C)CC1 (stereo not given)")
"150%"
>>> result("CC(C)CNC(=O)c1c(N)n(/N=C/c2ccccn2)c2nc3ccccc3nc12")
"129%"
>>> result("CC(=O)O[C@H]1C(=O)[C@]2(C)[C@H]([C@H](OC(=O)c3ccccc3)[C@]3(O)C[C@H](OC(=O)[C@H](O)[C@@H](NC(=O)c4ccccc4)c4ccccc4)C(C)=C1C3(C)C)[C@]1(OC(C)=O)CO[C@@H]1C[C@@H]2O")
"105%"
>>> result("CC1=C(C)C(=O)C(CCCCC#CCCCC#CCO)=C(C)C1=O")
"108%"
>>> result("CCCSc1nc(N2CCCC2)c2c(c1C#N)CC(C)(C)OC2")
"173%"
>>> result("Cc1cc(=O)oc(C)c1C(=O)NCCN1CCOCC1")
"92.4%"
>>> result("Oc1ccccc1CNn1cnnc1")
"168%"
>>> result("CC(C)c1nc2n[nH]c(N)c2c2c1CCC2")
"148%"
>>> result("Cc1ccc(-c2nnc(OCCN3CCOCC3)c3ccccc23)cc1")
"167%"
>>> result("CC[N+](C)(C)c1cccc(O)c1")
"130%"
>>> result("CCCc1c(OCCCCc2nn[nH]n2)ccc(C(C)=O)c1O")
"129%"
>>> result("CCSc1nc(N)c2c3c(sc2n1)CCC3")
"146%"
>>> result("NC(CO)C(=O)NNCc1ccc(O)c(O)c1O (stereo not given)")
"124%"
>>> result("Nc1c(Br)cc2oc(-c3ccccc3)nc2c1Br")
"119%"
>>> result("Cn1c(=O)c2c3c(sc2n2c(SCC(=O)c4ccc(Cl)cc4)nnc12)COC(C)(C)C3")
"143%"
>>> result("C=C1c2cc(OC)ccc2NC(=O)N1CC")
"127%"
>>> result("COCCNc1cc(C)c(C#N)c2nc3ccccc3n12")
"108%"
>>> result("CN(C)CC(O)COc1ccc(C(C)(C)c2ccc(OCC(O)CN(C)C)cc2)cc1 (stereo not given)")
"154%"
>>> result("Cn1c(=O)n(C)c2cc(C(=O)c3ccccc3)ccc21")
"180%"
>>> result("CCOC(=O)CSc1nc2sc3c(c2c(=O)[nH]1)CC(C)(C)OC3")
"123%"
>>> result("O=c1c2ccccc2[nH]c(=S)n1CCN1CCC(=C(c2ccc(F)cc2)c2ccc(F)cc2)CC1")
"132%"
>>> result("C=CC(O)Cc1c(C)n[nH]c1C (stereo not given)")
"167%"
>>> result("COc1ccccc1NC(=O)C1=C(C)NC(SCC(=O)c2ccc(C)cc2)=C(C#N)C1c1ccco1 (stereo not given)")
"114%"
>>> result("CCCSc1nnc2n(C)c(=O)c3c4c(sc3n12)CCC4")
"83.1%"
>>> result("CN1CCN(CCC(=O)N2c3ccccc3Sc3ccc(Cl)cc32)CC1")
"176%"

###

TEST NAME: DUSP6 inhibitors restoring Erk phosphorylation by chemical complementation, primary imaging in DUSP6-transfected HeLa (AID 609)
STUDY CONDITIONS: HeLa MKP-3 transfected, phospho-Erk imaging KS statistic; measured here: nuclear pErk red intensity z-score; at 10 µM; stronger effect = higher value; cells stimulated with TPA for 15 min
Here the recorded z-score is given for each entry.
ENDPOINT NAME: z-score

>>> result("CC(C)C1Cc2c(C#N)c(N)n(C)c(=S)c2CO1 (stereo unspecified)")
0.802
>>> result("CC(C(=O)N1CCOCC1)N1C(=O)c2ccccc2C1=O (stereo unspecified)")
-1.67
>>> result("Nc1cccc(C(=O)O)c1")
-0.0201
>>> result("COC(=O)c1ccc(Cn2nnc3c(sc4nc(N5CCOCC5)c5c(c43)CCCC5)c2=O)o1")
-0.316
>>> result("CCOC(=O)c1ccc(NC(=O)Cn2nnc3ccccc32)cc1")
-0.72
>>> result("CCOc1ccc2nc(SCC(=O)Nc3ncccn3)[nH]c2c1")
1.4
>>> result("CCCCN1C[C@H](O)[C@@H](O)[C@H](O)[C@H]1CO")
0.0804
>>> result("Cc1ccc(-c2ccccc2NC(=O)C2C3C=CC(C3)C2C(=O)O)o1 (stereo unspecified)")
-0.083
>>> result("Cc1ccc2c(c1)[C@@H]1CN(C)CC[C@@H]1N2S(=O)(=O)c1ccc(F)cc1")
-0.18
>>> result("CC(=O)OCC(=O)[C@@]1(O)CC[C@H]2[C@@H]3CCC4=CC(=O)CC[C@]4(C)[C@H]3[C@@H](O)C[C@@]21C")
1.76
>>> result("Cc1nnc2c(NC(C)C)nc3ccccc3n12")
-1.32
>>> result("CCOc1nnnc2c1sc1nc(N3CCOCC3)c3c(c12)CC(C)(C)OC3")
-0.83
>>> result("Cc1ccc(C2C(C(=O)c3cc4ccccc4o3)=C(O)C(=O)N2CCN(C)C)o1 (stereo unspecified)")
-0.073
>>> result("O=C1c2ccccc2C(=O)C1c1ccc2ccccc2n1")
0.575
>>> result("CCN(CC)CCN1C(=O)C(=O)/C(=C(/O)c2ccc(OC(C)C)cc2)C1c1ccncc1 (stereo unspecified)")
-0.356
>>> result("CC(=O)c1cc(C#N)c(SCc2ccncc2)nc1C")
1.67
>>> result("Nc1nnc(CSc2ccc(Cl)cc2)s1")
-0.139
>>> result("NC(=O)CSc1nc(N)c2c3c(sc2n1)CCCCC3")
0.273
>>> result("Cc1cc(C)nc(NC(=O)c2ccc(OC(C)C)cc2)n1")
-0.231
>>> result("CCOP(=O)(c1ccccc1)c1nc(-c2ccccc2C)oc1N1CCCCC1 (stereo unspecified)")
1.07
>>> result("CSc1nc(N)nc(SCC(=O)CC(=O)OC(C)C)c1C#N")
-2.15
